// provenance: patent EP4800012A1

System: NCI-H1373 cells
experiment.description: Inhibition on NCI-H1373 cell proliferation (Cell-Titer-Glo)
Format: cell-based
study.conditions: Homo sapiens, 144 h; NCI-H1373 cells, incubation for 6 days, Cell-Titer-Glo; read-out: NCI-H1373 cell proliferation inhibition IC50
Experimental: The inhibitory effect of the compound on PARP7 was evaluated by testing the inhibitory effect of the compound on NCI-H1373 cell proliferation. NCI-H1373 cells (ATCC, CRL-5866) were cultured in a complete medium, namely, a RPMI-1640 medium (Gibco, 22400089) containing 10% fetal bovine serum (Corning, 35-081-CV). Negative control wells and positive control wells were added with 50 nL DMSO (Sigma, D2650), respectively. […]
pIC50: −log10 of the molar value.
Can you tell me pIC50 for the items I'm about to list?

**Query** // query pIC50 value for entry CC(CCCNC(=O)c1ncc(-c2ncc(C(F)(F)F)cn2)s1)Nc1cn[nH]c(=O)c1C(F)(F)F (stereo not shown) [Example 151]
**Result** < 5.52

**Query** Okay, and O=C(NCCCC(Nc1cn[nH]c(=O)c1C(F)(F)F)C(=O)N1CCCC1)c1cnc(-c2ncc(C(F)(F)F)cn2)cn1 (stereo not shown) [Example 89] ?
**Result** 6.00 to 6.52

**Query** Okay, and O=C(CCc1c[nH]c(=O)c(C(F)(F)F)c1N1CC2(CCC2)C1)Nc1ccc(-c2ncc(C(F)(F)F)s2)cn1 [Example 69] ?
**Result** < 5.52

**Query** Okay, and CC1(F)CN(C(=O)[C@@H](CCCNC(=O)c2ccc(-c3ncc(C(F)(F)F)s3)cc2)Nc2cn[nH]c(=O)c2C(F)(F)F)C1 [Example 242] ?
**Result** 5.52 to 6.00

**Query** Okay, and CC(CCCNC(=O)c1ccc(-c2ncc(N(C)C)cn2)cc1)Nc1cn[nH]c(=O)c1C(F)(F)F (stereo not shown) [Example 63] ?
**Result** > 6.52

**Query** Okay, and O=C(NCCC[C@@H](Nc1cn[nH]c(=O)c1C(F)(F)F)C(=O)N1CC[C@@H](F)C1)c1ccc(-c2ncc(C(F)(F)F)s2)cc1 [Example 222] ?
**Result** > 6.52

**Query** Okay, and CC(CCCNC(=O)c1ccc(-c2ncc(N3CCOCC3)cn2)cc1)Nc1cn[nH]c(=O)c1C(F)(F)F (stereo not shown) [Example 14] ?
**Result** < 5.52

----------
target.under.test: PARP7 (Homo sapiens)
Construct: purchased BPS 80527
experiment.description: PARP7 TR-FRET binding inhibition (displacement of probe RBN011147)
study.conditions: TR-FRET, Biotin-labeled probe RBN011147; read-out: PARP7 binding inhibition IC50
measurement.name: IC50

**Query** // query IC50 value for entry CC(CCCNC(=O)c1ccc(-c2ncc(C(F)F)s2)cn1)Nc1cn[nH]c(=O)c1C#N (stereo not shown)
**Result** > 100 nM

**Query** Okay, and COC1CN(C(=O)[C@@H](CCCNC(=O)c2ccc(-c3ncc(C(F)(F)F)s3)cc2)Nc2cn[nH]c(=O)c2C(F)(F)F)C1 ?
**Result** < 10 nM

**Query** Okay, and CC(CCCNC(=O)c1ccc(-c2ncc(C(F)(F)F)s2)cc1F)Nc1cc[nH]c(=O)c1C#N (stereo not shown) ?
**Result** > 100 nM

**Query** Okay, and CC(CCCNC(=O)c1ccc(-c2ncc(C(F)(F)F)s2)nc1)Nc1cn[nH]c(=O)c1C(F)(F)F (stereo not shown) ?
**Result** < 10 nM

----------
target.under.test: PARP7 (Homo sapiens, UniProt Q7Z3E1)
Construct: purchased BPS 80527
Sequence (Q7Z3E1 whole entry): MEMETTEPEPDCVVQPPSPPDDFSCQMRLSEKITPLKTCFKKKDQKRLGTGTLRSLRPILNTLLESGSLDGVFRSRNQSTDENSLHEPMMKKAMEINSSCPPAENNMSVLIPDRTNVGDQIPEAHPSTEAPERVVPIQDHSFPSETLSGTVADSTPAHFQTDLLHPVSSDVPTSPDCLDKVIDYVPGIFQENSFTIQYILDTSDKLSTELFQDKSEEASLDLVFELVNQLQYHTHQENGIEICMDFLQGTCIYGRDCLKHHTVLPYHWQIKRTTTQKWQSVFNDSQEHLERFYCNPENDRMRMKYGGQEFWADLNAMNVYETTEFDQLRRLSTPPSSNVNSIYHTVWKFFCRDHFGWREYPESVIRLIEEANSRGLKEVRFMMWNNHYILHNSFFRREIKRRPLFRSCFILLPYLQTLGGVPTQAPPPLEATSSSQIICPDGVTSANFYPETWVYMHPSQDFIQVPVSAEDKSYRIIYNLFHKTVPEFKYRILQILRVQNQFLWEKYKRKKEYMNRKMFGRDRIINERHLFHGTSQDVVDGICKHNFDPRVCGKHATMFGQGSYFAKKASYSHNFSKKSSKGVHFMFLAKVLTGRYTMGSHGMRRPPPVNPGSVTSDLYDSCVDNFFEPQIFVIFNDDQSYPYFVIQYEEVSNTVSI
experiment.description: PARP7 TR-FRET binding inhibition (displacement of probe RBN011147)
study.conditions: TR-FRET, Biotin-labeled probe RBN011147; read-out: PARP7 binding inhibition IC50
measurement.name: IC50

**Query** // query IC50 value for entry O=C(NCCCC(Nc1cn[nH]c(=O)c1C(F)(F)F)C1CC1)c1ccc(-c2ncc(C(F)(F)F)s2)cc1 (stereo not shown)
**Result** < 10 nM

**Query** Okay, and CC(CCCNC(=O)c1ccc(-n2cccn2)nc1)Nc1cn[nH]c(=O)c1C(F)(F)F (stereo not shown) ?
**Result** 10 to 30 nM

**Query** Okay, and CC1(NC(=O)[C@@H](CCCNC(=O)c2ccc(-c3ncc(C(F)(F)F)s3)cc2)Nc2cn[nH]c(=O)c2C(F)(F)F)CCOCC1 ?
**Result** < 10 nM

**Query** Okay, and CC(CCCNC(=O)c1ccc(-c2ncc(C3CCCC3)s2)cc1)Nc1cn[nH]c(=O)c1C(F)(F)F (stereo not shown) ?
**Result** 10 to 30 nM

----------
target.under.test: PARP7 (Homo sapiens, UniProt Q7Z3E1)
Construct: purchased BPS 80527
experiment.description: Inhibition of the compound on PARP7 protein activity (ADP-ribosylation, chemiluminescence)
Assay type: biochemical
study.conditions: Histone H1 coated plate, Biotin-Labeled NAD+, 2 h at room temperature, chemiluminescence; read-out: PARP7 activity inhibition IC50
pIC50: −log10 of the molar value.
measurement.name: pIC50

**Query** // map CC(CCCNC(=O)c1ccc(-c2ncc(C(F)F)s2)cn1)Nc1cn[nH]c(=O)c1C#N (centres unmarked) to recorded pIC50 (system: PARP7 (Homo sapiens, UniProt Q7Z3E1))
**Result** 7.00 to 7.52

**Query** Okay, and CC(CCCNC(=O)c1ccc(-c2ncc(C(F)(F)F)s2)cc1F)Nc1cn[nH]c(=O)c1C(F)(F)F (centres unmarked) ?
**Result** > 8.52

**Query** Okay, and CC(CCCNC(=O)c1ccc(-c2ncn(C)n2)cc1)Nc1cn[nH]c(=O)c1C(F)(F)F (centres unmarked) ?
**Result** 8.00 to 8.52

**Query** Okay, and O=C(NCCCC(Nc1cn[nH]c(=O)c1C(F)(F)F)C(=O)N1CC2(CCC2)C1)c1cnc(-c2ncc(C(F)(F)F)cn2)cn1 (centres unmarked) ?
**Result** > 8.52

**Query** Okay, and O=C(NCCC[C@@H](Nc1cn[nH]c(=O)c1C(F)(F)F)C(=O)N1CC(Cl)C1)c1ccc(-c2ncc(C(F)(F)F)s2)cc1 ?
**Result** > 8.52

**Query** Okay, and CC(CCCNC(=O)c1ccc(-c2ncc(N(C)C)cn2)cc1)Nc1cn[nH]c(=O)c1C(F)(F)F (centres unmarked) ?
**Result** > 8.52

**Query** Okay, and O=C(NCCC[C@@H](Nc1cn[nH]c(=O)c1C(F)(F)F)C(=O)Nc1ccccn1)c1ccc(-c2ncc(C(F)(F)F)s2)cc1 ?
**Result** > 8.52

**Query** Okay, and CC(CCCNC(=O)c1ccc(-c2nc(C(F)(F)F)cs2)cc1)Nc1cn[nH]c(=O)c1C(F)(F)F (centres unmarked) ?
**Result** 7.00 to 7.52

**Query** Okay, and C[C@@H]1COCCN1C(=O)[C@@H](CCCNC(=O)c1ccc(-c2ncc(C(F)(F)F)s2)cc1)Nc1cn[nH]c(=O)c1C(F)(F)F ?
**Result** > 8.52

**Query** Okay, and CC(CCCNC(=O)c1ncc(-c2ncc(C(F)(F)F)cn2)cc1F)Nc1cn[nH]c(=O)c1C(F)(F)F (centres unmarked) ?
**Result** > 8.52

**Query** Okay, and Cc1cc(NC(C)CCCN(C)C(=O)c2cnc(-c3ncc(C(F)(F)F)cn3)cn2)c(C#N)c(=O)[nH]1 (centres unmarked) ?
**Result** 7.00 to 7.52

**Query** Okay, and COC1(C)CN(C(=O)[C@@H](CCCNC(=O)c2ccc(-c3ncc(C(F)(F)F)s3)cc2)Nc2cn[nH]c(=O)c2C(F)(F)F)C1 ?
**Result** > 8.52

**Query** Okay, and CC(CCCNC(=O)c1ccc(-c2csc(C(F)(F)F)n2)nc1)Nc1cn[nH]c(=O)c1C(F)(F)F (centres unmarked) ?
**Result** > 8.52

**Query** Okay, and CC(CCCN(C)C(=O)c1cnc(N2CCOCC2)cn1)Nc1cn[nH]c(=O)c1C(F)(F)F (centres unmarked) ?
**Result** 7.00 to 7.52

----------
Tested on: NCI-H1373 cells
experiment.description: Inhibition on NCI-H1373 cell proliferation (Cell-Titer-Glo)
Assay type: cell-based
study.conditions: Homo sapiens, 144 h; NCI-H1373 cells, incubation for 6 days, Cell-Titer-Glo; read-out: NCI-H1373 cell proliferation inhibition IC50
pIC50: −log10 of the molar value.
measurement.name: pIC50

**Query** // map CC(CCCNC(=O)c1ccc(-c2ncc(C#N)cc2F)cc1)Nc1cn[nH]c(=O)c1C(F)(F)F (centres unmarked) [Example 67] to recorded pIC50 (system: NCI-H1373 cells)
**Result** 6.00 to 6.52

**Query** Okay, and CC(CCCNC(=O)c1ccc(-c2ncc(C3CCCC3)s2)cc1)Nc1cn[nH]c(=O)c1C(F)(F)F (centres unmarked) [Example 155] ?
**Result** 5.52 to 6.00

**Query** Okay, and Cc1c(CCC(=O)Nc2ncc(-c3ncc(C(F)(F)F)cn3)cc2F)c[nH]c(=O)c1C(F)(F)F [Example 76] ?
**Result** < 5.52

**Query** Okay, and CC(CCCNC(=O)c1ccc(-c2ncc(C(F)(F)F)s2)cn1)Nc1cn[nH]c(=O)c1C(F)(F)F (centres unmarked) [Example 209] ?
**Result** > 6.52

**Query** Okay, and O=C(NCCC[C@@H](Nc1cn[nH]c(=O)c1C(F)(F)F)C(=O)NC1CCC1)c1ccc(-c2ncc(C(F)(F)F)s2)cc1 [Example 228] ?
**Result** > 6.52

**Query** Okay, and COC1CN(C(=O)[C@@H](CCCNC(=O)c2ccc(-c3ncc(C(F)(F)F)s3)cc2)Nc2cn[nH]c(=O)c2C(F)(F)F)C1 [Example 256] ?
**Result** 6.00 to 6.52

**Query** Okay, and CC(CCCNC(=O)c1cnn(-c2ncc(C(F)(F)F)cn2)c1)Nc1cn[nH]c(=O)c1C(F)(F)F (centres unmarked) [Example 38] ?
**Result** < 5.52

**Query** Okay, and CC(CCNC(=O)c1n[nH]c2c1CCN(c1ncc(C(F)(F)F)cn1)C2)Nc1cn[nH]c(=O)c1C(F)(F)F (centres unmarked) [Example 8] ?
**Result** < 5.52

**Query** Okay, and NC(=O)c1cccc2cn(CCCNC(=O)c3ncc(-c4ncc(C(F)(F)F)s4)cc3F)nc12 [Example 249] ?
**Result** < 5.52

**Query** Okay, and Cc1cc(NC(C)CCCN(C)C(=O)c2cnc(-c3ncc(C(F)(F)F)cn3)cn2)c(C#N)c(=O)[nH]1 (centres unmarked) [Example 34] ?
**Result** < 5.52

**Query** Okay, and CC(CCCNC(=O)c1ccc(-c2ncc(C(F)F)s2)cn1)Nc1cc[nH]c(=O)c1C(F)(F)F (centres unmarked) [Example 29] ?
**Result** < 5.52

**Query** Okay, and Cc1cccc(NC(=O)[C@@H](CCCNC(=O)c2ccc(-c3ncc(C(F)(F)F)s3)cc2)Nc2cn[nH]c(=O)c2C(F)(F)F)n1 [Example 257] ?
**Result** > 6.52

**Query** Okay, and CC(CCCNC(=O)c1ccc(-c2cc(-c3cccnc3)sn2)cc1)Nc1cn[nH]c(=O)c1C(F)(F)F (centres unmarked) [Example 18] ?
**Result** 6.00 to 6.52

**Query** Okay, and CC(CCCn1ccc2cc(-c3ncc(C(F)(F)F)cn3)cnc2c1=O)Nc1cn[nH]c(=O)c1C(F)(F)F (centres unmarked) [Example 250] ?
**Result** < 5.52
